Where do these numbers come from? They come from PubChem BioAssay AID651610.

- Protocol details: inhibitors of HIV-1 Env-driven cell-cell fusion, primary screen, HeLa-JRFL effector, CEM21 target cells, luciferase (AID 651610);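 note: 0% = plate neutral controls and 100% = maraviroc near 300 nM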
- Test settings: at 16.7 µM unless noted
The campaign covered roughly 360,000 compounds. About 3,900 (1.1%) were called active.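 Rule for the calls: active = mean replicate inhibition score of at least 50 and every replicate individually at or above 50; inconclusive = only one of the two criteria met; inactive = mean below 50 and not all replicates reaching 50.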 Only a selection was taken, and actives are over-represented in it overall.
Can you answer with just one of these options? y = active, n = inactive

Solved entries:
Which outcome did this test record for the compound COc1cccc(/C=N/Nc2ncc(C(F)(F)F)cc2Cl)c1O ?
y

Which outcome did this test record for the compound O=C(Nc1ccc(-c2ccccc2)cc1)[C@H]1[C@H](CO)[C@H]2Cn3c(cccc3=O)[C@H]2N1CC1CC1 ?
n

Further cases:
Which outcome did this test record for the compound Clc1ccc2c(c1)C1=C(C(c3ccncc3)O2)C(c2ccc(Br)cc2)n2ncnc2N1 (stereo not given) ?
y

Which outcome did this test record for the compound CN(C)CCCn1c(=O)n(Cc2ccccc2)c(=O)c2c3c(sc21)CCCCC3 ?
y

Which outcome did this test record for the compound COCC(=O)N1C[C@@H](C)[C@H](OC)CN(C)C(=O)c2cc(NC(=O)c3cc(C)on3)ccc2OC[C@@H]1C ?
n

Which outcome did this test record for the compound O=C(CSc1ncnc2scc(-c3ccccc3)c12)NCc1ccc2c(c1)OCO2 ?
n

Which outcome did this test record for the compound COc1ccc(C(=O)Nc2cc(S(=O)(=O)N3CCCC3)ccc2Cl)cc1 ?
n

Which outcome did this test record for the compound CN(C)C(=O)c1cccc(-c2cnc3c(NC=O)cc(-c4ccc(C(=O)N5CCOCC5)cc4)cn23)c1 ?
n

Which outcome did this test record for the compound C#Cc1cc(N2CCN(C(=O)c3ccoc3)CC2)n2nc(-c3cccc(Cl)c3)cc2n1 ?
n

Which outcome did this test record for the compound CCn1c(=S)[nH]c2sc3c(c2c1=O)CCCCC3 ?
n

* * *

Parameter: inhibition. Scope: all listed entries.
- Protocol details: inhibitors of HIV-1 Env-driven cell-cell fusion, primary screen, HeLa-JRFL effector, CEM21 target cells, luciferase (AID 651610);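 note: 0% = plate neutral controls and 100% = maraviroc near 300 nM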
- Test settings: stronger effect = higher value; at 16.7 µM unless noted
The whole screen tested about 360,000 compounds, of which about 3,900 (1.1%) were called active. Many of the other results were omitted from the sample, so actives are more common in it than they were.
Kindly provide the numeric value in % only, without the unit symbol.

Worked cases, answers included:
GET /values?readout=inhibition&item= COc1ccc2c3c([nH]c2c1)[C@H](CO)N(C(=O)Nc1cccc(F)c1)CC31CCN(S(=O)(=O)c2ccccc2)CC1
92.2

GET /values?readout=inhibition&item= COc1ccc2c3c([nH]c2c1)[C@@H](CO)N(C(C)=O)CC31CN(C(=O)Nc2ccc(F)cc2)C1
31

Let us move to another entry and its inhibition.
GET /values?readout=inhibition&item= CO[C@@H]1CN(C)C(=O)c2ccc(NC(=O)c3cccc(Oc4ccccc4)c3)cc2OC[C@H](C)NC[C@@H]1C
12.8

* * *

- Protocol details: inhibitors of HIV-1 Env-driven cell-cell fusion, primary screen, HeLa-JRFL effector, CEM21 target cells, luciferase (AID 651610);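 note: 0% = plate neutral controls and 100% = maraviroc near 300 nM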
- Test settings: stronger effect = higher value; at 16.7 µM unless noted
Out of some 360,000 compounds screened, about 3,900 (1.1%) were called active. For the sample, actives were picked, then their nearest neighbours and some compounds at random.
Parameter: inhibition

GET /values?readout=inhibition&item= O=C1[C@H]2[C@@H](c3ccc(Cl)cc3)N3C(=O)N(c4cccc(F)c4)C(=O)[C@@]3(Cc3ccccc3)[C@H]2C(=O)N1C1CCCCC1
1.92% [at 12.3 µM] (inactive)

Further cases:
GET /values?readout=inhibition&item= O=C1NC(c2ccccc2)Oc2ccccc21 (stereo not drawn)
-8.85% [at 12.3 µM] (inactive)

GET /values?readout=inhibition&item= C[C@@H]1NC(=O)[C@@]2(C)[C@@H](c3ccccc3)[C@H]3COc4ccccc4[C@@H]3N2C1=O
1% [at 12.3 µM] (inactive)

* * *

- Protocol details: inhibitors of HIV-1 Env-driven cell-cell fusion, primary screen, HeLa-JRFL effector, CEM21 target cells, luciferase (AID 651610);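 note: 0% = plate neutral controls and 100% = maraviroc near 300 nM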
- Test settings: at 16.7 µM unless noted
About 3,900 (1.1%) of roughly 360,000 compounds were called active.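 How the source made its calls: active means mean replicate inhibition score of at least 50 and every replicate individually at or above 50; inconclusive means only one of the two criteria met; inactive means mean below 50 and not all replicates reaching 50.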 The full list was thinned out, with actives kept by preference.
Can you answer with just one of these options? true (1) = active, false (0) = inactive

Solved entries:
Which outcome did this test record for the molecule NC(Cc1ccccc1)c1csc(Nc2cc(Oc3ccccc3)ncn2)n1 (centres undefined) ?
false (0)

Which outcome did this test record for the molecule O=C(CN(c1cc(C(F)(F)F)ccc1Cl)S(=O)(=O)c1ccccc1)NCc1cccnc1 ?
true (1)

Which outcome did this test record for the molecule CCc1ccc(N(CC(=O)NCc2cccnc2)S(=O)(=O)c2ccccc2)cc1 ?
false (0)

Next item in the queue.
Which outcome did this test record for the molecule C[C@@H]1CCCCO[C@H](CN(C)S(=O)(=O)c2cn(C)cn2)[C@H](C)CN([C@@H](C)CO)C(=O)c2cc(NC(=O)Nc3ccc(C(F)(F)F)cc3)ccc2O1 ?
false (0)

* * *

- Protocol details: inhibitors of HIV-1 Env-driven cell-cell fusion, primary screen, HeLa-JRFL effector, CEM21 target cells, luciferase (AID 651610);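 note: 0% = plate neutral controls and 100% = maraviroc near 300 nM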
- Test settings: at 16.7 µM unless noted
The whole screen tested about 360,000 compounds, of which about 3,900 (1.1%) were called active.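 The calls were made as follows: active = mean replicate inhibition score of at least 50 and every replicate individually at or above 50; inconclusive = only one of the two criteria met; inactive = mean below 50 and not all replicates reaching 50.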 The list comes from a sample in which actives are over-represented; it also holds close analogues and randomly drawn compounds.
Can you answer with just one of these options? 1 (yes) (active), 0 (no) (inactive)

Solved entries:
Which outcome did this test record for the molecule CCCN1C(=O)c2[nH]nc(-c3ccccc3)c2C1c1ccccc1 (stereo unspecified) ?
0 (no)

Which outcome did this test record for the molecule CC(C)NC(=O)N[C@@H]1CC[C@H](CC(=O)NCCN2CCCC2)O[C@@H]1CO ?
0 (no)

Which outcome did this test record for the molecule COc1ccc(CCN2C(=O)c3[nH]nc(-c4ccccc4O)c3C2c2ccc(C)cc2)cc1OC (stereo unspecified) ?
1 (yes)

Further cases:
Which outcome did this test record for the molecule CC(C)(C)NC(=O)C(CCc1ccccc1)n1c(=O)c(-c2ccccc2)nc2ccccc21 (stereo unspecified) ?
0 (no)

Which outcome did this test record for the molecule COc1cccc(S(=O)(=O)N(C)C[C@@H]2Oc3cc(C#CCN(C)C)ccc3S(=O)(=O)N([C@@H](C)CO)C[C@@H]2C)c1 ?
0 (no)

Which outcome did this test record for the molecule CCC(CC)c1nnc(NC(=O)C2=COCCO2)s1 ?
0 (no)

Which outcome did this test record for the molecule C[C@H]1CCCCO[C@H](CN(C)C(=O)NC2CCCCC2)[C@@H](C)CN([C@@H](C)CO)C(=O)c2cc(NC(=O)Nc3ccc4c(c3)OCO4)ccc2O1 ?
1 (yes)

Which outcome did this test record for the molecule C[C@@H]1CCCCO[C@H](CN(C)C)[C@H](C)CN([C@@H](C)CO)C(=O)c2cc(NS(=O)(=O)c3cn(C)cn3)ccc2O1 ?
1 (yes)

Which outcome did this test record for the molecule CCCC#Cc1ccc([C@@H]2[C@@H](C#N)N(C(=O)C3CC3)[C@H]2CO)cc1 ?
0 (no)

Which outcome did this test record for the molecule CCCCn1c(SCC(=O)N2CCOCC2)nc2c1c(=O)n(C)c(=O)n2C ?
0 (no)

Which outcome did this test record for the molecule CN1CCN(C(=O)C[C@H]2C[C@@H]3c4cc(NC(=O)Nc5ccc(C(F)(F)F)cc5)ccc4O[C@@H]3[C@H](CO)O2)CC1 ?
0 (no)

Which outcome did this test record for the molecule Cc1noc(C)c1S(=O)(=O)N(C)C[C@@H]1OCCCC[C@@H](C)Oc2ccc(NC(=O)c3ccccc3)cc2C(=O)N([C@H](C)CO)C[C@H]1C ?
0 (no)

Which outcome did this test record for the molecule COc1ccc(NC(=O)Nc2ccc3c(c2)C(=O)N([C@H](C)CO)C[C@@H](C)[C@@H](CN(C)C(=O)NC(C)C)OCCCC[C@H](C)O3)cc1 ?
0 (no)

Which outcome did this test record for the molecule C[C@@H]1CN([C@H](C)CO)C(=O)Cc2cc(NS(=O)(=O)c3cccs3)ccc2O[C@@H]1CN(C)C(=O)Nc1ccc(F)cc1 ?
0 (no)

Which outcome did this test record for the molecule C[C@@H]1CN([C@@H](C)CO)C(=O)c2cc(NS(=O)(=O)c3cn(C)cn3)ccc2O[C@@H](C)CCCCO[C@H]1CN(C)S(=O)(=O)c1cn(C)cn1 ?
0 (no)

* * *

- Protocol details: inhibitors of HIV-1 Env-driven cell-cell fusion, primary screen, HeLa-JRFL effector, CEM21 target cells, luciferase (AID 651610);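 note: 0% = plate neutral controls and 100% = maraviroc near 300 nM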
- Test settings: at 16.7 µM unless noted
The whole screen tested about 360,000 compounds, of which about 3,900 (1.1%) were called active.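 The calls were made as follows: active = mean replicate inhibition score of at least 50 and every replicate individually at or above 50; inconclusive = only one of the two criteria met; inactive = mean below 50 and not all replicates reaching 50.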 Only a selection was taken, and actives are over-represented in it overall.
Can you answer with just one of these options? active, inactive

Solved entries:
Which outcome did this test record for the compound Cc1cc(C)c(CN2CCN(C(=O)Cn3ccc(NC(=O)OCc4ccccc4)nc3=O)CC2)c(C)c1 ?
active

Which outcome did this test record for the compound C[C@@H]1CCCCO[C@@H](CN(C)Cc2ccncc2)[C@@H](C)CN([C@@H](C)CO)C(=O)c2cc(N(C)C)ccc2O1 ?
inactive

Which outcome did this test record for the compound Cc1ccc(C(NC(=O)C2CCN(CCOc3ccc(Cl)cc3Cl)CC2)c2ccccn2)cc1 (stereo not given) ?
inactive

Which outcome did this test record for the compound O=C(C[C@H]1C[C@H]2c3cc(NC(=O)Cc4ccncc4)ccc3O[C@H]2[C@@H](CO)O1)NCc1cccc(F)c1 ?
inactive

Which outcome did this test record for the compound C[C@@H]1CN([C@H](C)CO)C(=O)c2cc(C3=CCCC3)cnc2O[C@@H]1CN(C)C(=O)Nc1ccc(F)cc1 ?
inactive

Next item in the queue.
Which outcome did this test record for the compound CCCNC(=O)N1[C@@H](C#N)[C@H](c2ccc(-c3ccc(C(=O)N(C)C)cc3)cc2)[C@@H]1CO ?
inactive
